Sourced from ChEMBL document CHEMBL1129362

# Tgt: Gastrin/cholecystokinin type B receptor (Homo sapiens, UniProt P32239)
# Sequence (P32239 whole entry): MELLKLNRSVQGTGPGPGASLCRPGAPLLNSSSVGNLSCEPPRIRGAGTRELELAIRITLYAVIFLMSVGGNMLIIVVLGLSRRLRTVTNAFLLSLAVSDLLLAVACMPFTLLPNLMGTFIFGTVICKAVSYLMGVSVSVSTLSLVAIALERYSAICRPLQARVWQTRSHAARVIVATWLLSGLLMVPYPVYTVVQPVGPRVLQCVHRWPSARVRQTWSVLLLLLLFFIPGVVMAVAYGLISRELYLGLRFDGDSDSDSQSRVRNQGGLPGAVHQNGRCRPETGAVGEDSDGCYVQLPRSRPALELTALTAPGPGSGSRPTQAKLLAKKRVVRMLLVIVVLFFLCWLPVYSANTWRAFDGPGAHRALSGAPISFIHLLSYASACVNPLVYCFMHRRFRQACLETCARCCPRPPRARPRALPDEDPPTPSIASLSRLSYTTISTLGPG
Reported Metric: pIC50
One number for each entry, as −log10 of the molar value.

For each of the molecules below, state pIC50.
1. COc1ccc(N(C(=O)CN2C(=O)C(C)(Cc3c[nH]c4ccccc34)C(=O)N(c3ccccc3)c3ccccc32)C(C)C)cc1 (stereo unspecified)
2. CC(C)N(C(=O)CN1C(=O)C(C)(Cc2n[nH]c3ccccc23)C(=O)N(c2ccccc2)c2ccccc21)c1ccccc1 (stereo unspecified)
3. COc1ccc(N(C(=O)CN2C(=O)C(Cc3c[nH]c4ccccc34)C(=O)N(c3ccccc3)c3ccccc32)C(C)C)cc1 (stereo unspecified)
4. CC(C)N(C(=O)CN1C(=O)C(Cc2n[nH]c3ccccc23)C(=O)N(c2ccccc2)c2ccccc21)c1ccccc1 (stereo unspecified)
5. COc1ccc(N(C(=O)CN2C(=O)C(C)(Cc3n[nH]c4ccccc34)C(=O)N(c3ccccc3)c3ccccc32)C(C)C)cc1 (stereo unspecified)
6. COc1ccc(N(C(=O)CN2C(=O)C(Cc3nn(C)c4ccccc34)C(=O)N(c3ccccc3)c3ccccc32)C(C)C)cc1 (stereo unspecified)

4.76
5.58
5.28
6.75
4.16
5.62
